Source of measurements: paper PMC6222357

Test name: Stability of the analytes in beagle plasma QC samples under different storage conditions
Assay type: physicochemical, beagle dog
Measurement parameters: medium QC in beagle plasma, 4 h at ambient temperature, n = 6
Measured Stability (% RE) Short-Term accompanies every entry in the list below.
Respond with the bare value in % RE.

Sample records with Stability (% RE) Short-Term:
CN1C(=O)c2c(ccc3c2OCO3)C2(C)C(O)Cc3cc4c(cc3C12)OCO4 (centres unmarked) :: −3.92
COc1cc2c(cc1OC)-c1cc3ccc(OC)c(OC)c3c[n+]1CC2 :: −6.30
c1c2c(cc3c1OCO3)-c1cc3ccc4c(c3c[n+]1CC2)OCO4 :: −3.05
CN1CCc2cc3c(cc2C(=O)Cc2ccc4c(c2C1)OCO4)OCO3 :: 8.75

Query: What Stability (% RE) Short-Term value was documented for this compound, CN1Cc2c(ccc3c2OCO3)[C@@]2(C)[C@@H](O)Cc3cc4c(cc3[C@@H]12)OCO4 ?
Result: 9.25

Query: Okay, and COc1cc2c(cc1OC)[C@@H]1Cc3ccc(OC)c(OC)c3CN1CC2 [Terahydropalmatine, tetrahydropalmatine] ?
Result: 3.11

Query: Okay, and COc1ccc2cc3[n+](cc2c1O)CCc1cc2c(cc1-3)OCO2 ?
Result: 5.82

Query: Okay, and C[n+]1cc2c3c(ccc2c2ccc4cc5c(cc4c21)OCO5)OCO3 ?
Result: −5.50

====

Measured half-life accompanies every entry in the list below.
Test name: Pharmacokinetic study in beagle dogs after oral administration of C. bungeana extract (UHPLC-MS/MS of plasma)
Measurement parameters: male, beagle, dog, plasma, po, 0.12 g/kg

Sample records with half-life:
CN1C(=O)c2c(ccc3c2OCO3)C2(C)C(O)Cc3cc4c(cc3C12)OCO4 (centres unmarked) :: 6.98 h
CC(=O)O[C@H]1Cc2cc3c(cc2[C@H]2N(C)Cc4c(ccc5c4OCO5)[C@@]12C)OCO3 :: 5.52 h
CN1Cc2c(ccc3c2OCO3)[C@@]2(C)[C@@H](O)Cc3cc4c(cc3[C@@H]12)OCO4 :: 4.25 h
COc1cc2c(cc1OC)-c1cc3ccc(OC)c(OC)c3c[n+]1CC2 :: 8.56 h
COc1ccc(CCNC(=O)/C=C/c2ccc(O)c(O)c2)cc1 :: 6.34 h
COc1cc2c(cc1OC)[C@@H]1Cc3ccc(OC)c(OC)c3CN1CC2 [Terahydropalmatine, tetrahydropalmatine] :: 5.58 h
COc1ccc2cc3[n+](cc2c1OC)CCc1cc2c(cc1-3)OCO2 :: 2.49 h

Okay, now this compound:
Query: What half-life value was documented for this compound, CN1CCc2cc3c(cc2C(=O)Cc2ccc4c(c2C1)OCO4)OCO3 ?
Result: 4.92 h

====

Measured Tmax accompanies every entry in the list below.
Test name: in vivo
Measurement parameters: male, beagle, dog, po, 0.12 g/kg
Respond with the bare value in min.

c1c2c(cc3c1OCO3)-c1cc3ccc4c(c3c[n+]1CC2)OCO4 [Coptisine, coptisine] :: 55.2

Okay, now this compound:
Query: What Tmax value was documented for this compound, C[n+]1cc2c3c(ccc2c2ccc4cc5c(cc4c21)OCO5)OCO3 [Sanguinarine, sanguinarine] ?
Result: 57.6

====

Test name: Stability of the analytes in beagle plasma QC samples under different storage conditions
Assay type: physicochemical, beagle dog
Measurement parameters: high QC in beagle plasma, three freeze (−80 °C)-thaw cycles, n = 6
Measure name: Stability (% RE) Freeze-Thaw
Respond with the bare value in % RE.

COc1ccc(CCNC(=O)/C=C/c2ccc(O)c(O)c2)cc1 :: 12.43

Query: What Stability (% RE) Freeze-Thaw value was documented for this compound, COc1ccc2cc3[n+](cc2c1OC)CCc1cc2c(cc1-3)OCO2 ?
Result: 7.71

Query: Okay, and CN1C(=O)c2c(ccc3c2OCO3)C2(C)C(O)Cc3cc4c(cc3C12)OCO4 (stereo not shown) ?
Result: −3.58

Query: Okay, and COc1ccc2cc3[n+](cc2c1O)CCc1cc2c(cc1-3)OCO2 ?
Result: 10.06

Query: Okay, and CN1CCc2cc3c(cc2C(=O)Cc2ccc4c(c2C1)OCO4)OCO3 ?
Result: 10.26

Query: Okay, and COc1cc2c(cc1OC)[C@@H]1Cc3ccc(OC)c(OC)c3CN1CC2 [Terahydropalmatine, tetrahydropalmatine] ?
Result: 10.09

Query: Okay, and COc1cc2c(cc1OC)-c1cc3ccc(OC)c(OC)c3c[n+]1CC2 ?
Result: 8.37

Query: Okay, and c1c2c(cc3c1OCO3)-c1cc3ccc4c(c3c[n+]1CC2)OCO4 ?
Result: 12.83

Query: Okay, and C[n+]1cc2c3c(ccc2c2ccc4cc5c(cc4c21)OCO5)OCO3 ?
Result: 12.22

Query: Okay, and CC(=O)O[C@H]1Cc2cc3c(cc2[C@H]2N(C)Cc4c(ccc5c4OCO5)[C@@]12C)OCO3 ?
Result: −4.20

Query: Okay, and COc1cc2c(cc1O)-c1cc3ccc(OC)c(OC)c3c[n+]1CC2 ?
Result: 5.60

Query: Okay, and CN1Cc2c(ccc3c2OCO3)[C@@]2(C)[C@@H](O)Cc3cc4c(cc3[C@@H]12)OCO4 ?
Result: 7.95

Query: Okay, and COc1cc2c(cc1O)CC[n+]1cc3c(OC)c(OC)ccc3cc1-2 ?
Result: 6.24
